All values here come from paper PMC7819943.

test-target: OsWRKY34 (Oryza sativa, UniProt Q0JBA9 1-250)
Sequence (Q0JBA9 entry or part of it): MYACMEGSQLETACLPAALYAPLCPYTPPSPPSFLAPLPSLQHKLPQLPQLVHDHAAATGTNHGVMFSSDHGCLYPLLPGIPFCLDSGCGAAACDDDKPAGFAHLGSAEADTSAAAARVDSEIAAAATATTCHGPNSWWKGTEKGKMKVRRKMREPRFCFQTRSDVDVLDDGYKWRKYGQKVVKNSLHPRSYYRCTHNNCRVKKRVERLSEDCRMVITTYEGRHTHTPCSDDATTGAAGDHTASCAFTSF
method-description: protein-binding microarray (RPBM); PBS, 2% BSA, 51.3 ng/ul salmon testes DNA, 50 uM zinc acetate, 200 nM TF, 25 C, 1 h; high values mean tight binding
cond: protein: recombinant; tags: N-terminal polyhistidine and DsRed monomer fusion (pET32a); label: CyDye5-dUTP incorporated in the synthesized complementary strand; 3' TTTTT single-stranded linker to array surface; dsDNA, one strand shown
The full ranking holds about 68,000 sequences; the median of “fluorescence intensity (a.u.)” is about 9,100, and the highest 2% start at about 16,000. Many of the other results were omitted from the sample, so the highest values are more common in it than they were.
Measured binding signal accompanies every entry in the list below.

Worked examples, 3 sequences total:
{"columns": ["sequence-entry", "binding signal"],
 "data": [
  ["ACTTTGATTGGGCTGGGTTCATATGAGATTAGGGGAAAAACGGAGTCACCTAGTGCAG", "13500 fluorescence intensity (a.u.)"],
  ["TGGGATGTATTTGAGTTGTGATGCATTTCTTTTAGGATTTCGGAGTCACCTAGTGCAG", "8310 fluorescence intensity (a.u.)"],
  ["GCCTTCACAAAATCACAAGCGAATGATTTTACTGCCTTGCCGGAGTCACCTAGTGCAG", "9190 fluorescence intensity (a.u.)"]
]}

Would you kindly look at the next entry?
Query: Which binding signal is listed for `ACACGGCCACCCGCATCCGCACCACCCGCAAGCCGCGACGCGGAGTCACCTAGTGCAG` ?
Result: 9450 fluorescence intensity (a.u.)

###

// binding signal lookup, one value per entry
test-target: OsWRKY34 (Oryza sativa, UniProt Q0JBA9 1-250)
method-description: protein-binding microarray (RPBM); PBS, 2% BSA, 51.3 ng/ul salmon testes DNA, 50 uM zinc acetate, 200 nM TF, 25 C, 1 h; high values mean tight binding
cond: protein: recombinant; tags: N-terminal polyhistidine and DsRed monomer fusion (pET32a); label: CyDye5-dUTP incorporated in the synthesized complementary strand; 3' TTTTT single-stranded linker to array surface; dsDNA, one strand shown
The full ranking holds about 68,000 sequences; the median of “fluorescence intensity (a.u.)” is about 9,100, and the highest 2% start at about 16,000. The entries come from a sample that favours the highest values as a whole.

Some sequences with recorded binding signal:
{"columns": ["sequence-entry", "binding signal"],
 "data": [
  ["GATAACATGTTGTAGTCTTCCAGGGGTGGGTGTTAGCTGTCGGAGTCACCTAGTGCAG", "16700 fluorescence intensity (a.u.)"],
  ["GGACGGAGGGGCGGGGTGCGACGCGGACGGCGGCGGCGGGCGGAGTCACCTAGTGCAG", "13500 fluorescence intensity (a.u.)"],
  ["TCCGTTTTTTAATAGATGACGCCGTTGACTTTTTCTCACACGGAGTCACCTAGTGCAG", "31700 fluorescence intensity (a.u.)"]
]}

Query: Would you mind telling me what binding signal value was observed for `GGAGATACGGCGAGGGGAGGGGACGGAGGGGCGGGGTGCGCGGAGTCACCTAGTGCAG` ?
Result: 24700 fluorescence intensity (a.u.)

Query: Sample `CCACCAATCCACCACCGCCACGCCACTTCACCCTTGTTTTCGGAGTCACCTAGTGCAG` — what was its binding signal?
Result: 9810 fluorescence intensity (a.u.)

###

Entries and their measured binding signal follow.
test-target: OsWRKY34 (Oryza sativa, UniProt Q0JBA9 1-250)
method-description: protein-binding microarray (RPBM); PBS, 2% BSA, 51.3 ng/ul salmon testes DNA, 50 uM zinc acetate, 200 nM TF, 25 C, 1 h; high values mean tight binding
cond: protein: recombinant; tags: N-terminal polyhistidine and DsRed monomer fusion (pET32a); label: CyDye5-dUTP incorporated in the synthesized complementary strand; 3' TTTTT single-stranded linker to array surface; dsDNA, one strand shown
Over roughly 68,000 sequences, “fluorescence intensity (a.u.)” has its median near 9,100; the highest 2% begin near 16,000. What follows is part of a selection rich in the highest values, with near analogues and random picks from the rest.

Worked examples, 4 sequences total:
{"columns": ["sequence-entry", "recorded-measurement"],
 "data": [
  ["ACCCCATTTTTTTTGAAAATTCTCGAATTTTATTTTTTTTCGGAGTCACCTAGTGCAG", "8750 fluorescence intensity (a.u.)"],
  ["CAGTTAGGGGTGGGCATTCGGTCAGACCGAAAAATTCGGTCGGAGTCACCTAGTGCAG", "15500 fluorescence intensity (a.u.)"],
  ["TCCACGTTCACTTATCAGCCCCAACGTCTTAGCTTCCGATCGGAGTCACCTAGTGCAG", "9260 fluorescence intensity (a.u.)"],
  ["CATCCGTTTCAAAATGTTTGACACCGTTGACTTTTTAGCACGGAGTCACCTAGTGCAG", "26200 fluorescence intensity (a.u.)"]
]}

Query: Reported binding signal, sequence `TCTCCTTGATTCCCGCTTCTCACACGCATTATTTGTTTCACGGAGTCACCTAGTGCAG` : ____
Result: 18500 fluorescence intensity (a.u.)

Query: Form field: reported binding signal of `CCCATTTGCCATGTCAACGCACCGTACTAATTAATCCTTGCGGAGTCACCTAGTGCAG`
Result: 10200 fluorescence intensity (a.u.)

Query: For the sequence shown here, `AATACGGTTTGGAAGGGATCTTTTTTGGTTGGTTGCACTGCGGAGTCACCTAGTGCAG` , give the reported binding signal.
Result: 9650 fluorescence intensity (a.u.)

Query: Would you mind telling me what binding signal value was observed for `TGTTGGGTTGGGTTGGGTTGGGTTGGGTCCGTCCGATGAACGGAGTCACCTAGTGCAG` ?
Result: 24200 fluorescence intensity (a.u.)

Query: Reported binding signal for `ATGGTGGGCTTGTATTGTCCTGCAGTCCTGCTTGTTTTACCGGAGTCACCTAGTGCAG` : what is it?
Result: 10700 fluorescence intensity (a.u.)

Query: For the sequence shown here, `AATTTCGGAAGGGTTGGTTTAGGCAGTAATATTCTCCATTCGGAGTCACCTAGTGCAG` , give the reported binding signal.
Result: 8280 fluorescence intensity (a.u.)

Query: I would be grateful if you could share the reported binding signal for `GGTTTGTTTGTCAACCTCGGGGTGGTTGGGTACTTGGGTTCGGAGTCACCTAGTGCAG` .
Result: 11000 fluorescence intensity (a.u.)

Query: State the recorded binding signal for this entry: `TTATCAAAAGTACTTTTTAAGTATGACTTCTCCGTTTTTACGGAGTCACCTAGTGCAG`
Result: 8280 fluorescence intensity (a.u.)

Query: Please give the measured binding signal for this sequence: `CTTGCTCTCCTCTCTCGTGCTCCATCGATCGATCGATCTCCGGAGTCACCTAGTGCAG`
Result: 9660 fluorescence intensity (a.u.)

Query: Reported binding signal, sequence `GGATTGGTTTTGAGATTGTTCTGTCAGATGGGGATTGTTTCGGAGTCACCTAGTGCAG` : ____
Result: 12700 fluorescence intensity (a.u.)

Query: # query: binding signal of entry `ACTAGTGAAGTGTTGCCCGTTGGGTTTGGTGGAGTTTGAACGGAGTCACCTAGTGCAG`
Result: 8200 fluorescence intensity (a.u.)

Query: Requested read-out: binding signal. Entry: `TGTTGTCGTCGTCCCTCTTCCTTTCCTTTCCTTTCCTTGCCGGAGTCACCTAGTGCAG`
Result: 8870 fluorescence intensity (a.u.)

Query: Data request, read-out binding signal, for `TTATACTTTCTCTTTTTTTCACGTGTATATTTTCTAAACCCGGAGTCACCTAGTGCAG`
Result: 9610 fluorescence intensity (a.u.)

Query: Tell me the measured binding signal of `TGCGTCCCTCTTCCTTCATTCTCCTGACGCCTAGGGCCCACGGAGTCACCTAGTGCAG` , please.
Result: 8280 fluorescence intensity (a.u.)

###

test-target: OsWRKY34 (Oryza sativa, UniProt Q0JBA9 1-250)
method-description: protein-binding microarray (RPBM); PBS, 2% BSA, 51.3 ng/ul salmon testes DNA, 50 uM zinc acetate, 200 nM TF, 25 C, 1 h; high values mean tight binding
cond: protein: recombinant; tags: N-terminal polyhistidine and DsRed monomer fusion (pET32a); label: CyDye5-dUTP incorporated in the synthesized complementary strand; 3' TTTTT single-stranded linker to array surface; dsDNA, one strand shown
Whole data set: some 68,000 sequences, median “fluorescence intensity (a.u.)” near 9,100, cut for the highest 2% near 16,000. Many of the other results were omitted from the sample, so the highest values are more common in it than they were.
property-name: binding signal

These recorded examples may help you get a feel for the data.
{"columns": ["sequence-entry", "test-target", "binding signal"],
 "data": [
  ["ACCTGTGCTTGATGGGATGGAAGCTTGGATTAGGTTGGTTCGGAGTCACCTAGTGCAG", "OsWRKY34 (Oryza sativa, UniProt Q0JBA9 1-250)", "8560 fluorescence intensity (a.u.)"],
  ["GTCCGCATCCAATTCCCGGGCCATTCGAAATCCCCAACACCGGAGTCACCTAGTGCAG", "OsWRKY34 (Oryza sativa, UniProt Q0JBA9 1-250)", "10200 fluorescence intensity (a.u.)"],
  ["ACCTTAATTAATTAATCTTGTTTTCTCATGGAGTTGTCATCGGAGTCACCTAGTGCAG", "OsWRKY34 (Oryza sativa, UniProt Q0JBA9 1-250)", "10400 fluorescence intensity (a.u.)"],
  ["CGAGCTGCTGATGGCCCCTATGCCACATCTACTATGCATGCGGAGTCACCTAGTGCAG", "OsWRKY34 (Oryza sativa, UniProt Q0JBA9 1-250)", "17100 fluorescence intensity (a.u.)"],
  ["AATTTGTGTGTAATTTTTTAGGATTTGTGATGTATTTGATCGGAGTCACCTAGTGCAG", "OsWRKY34 (Oryza sativa, UniProt Q0JBA9 1-250)", "9210 fluorescence intensity (a.u.)"],
  ["GCTGCCTATTCCATACAAATTTCGTAGGTTCATTTCCAACCGGAGTCACCTAGTGCAG", "OsWRKY34 (Oryza sativa, UniProt Q0JBA9 1-250)", "10000 fluorescence intensity (a.u.)"]
]}

Query: Request the reported binding signal associated with `GATTGTAGTTTGTATATGCTGCCCATTTCTGTTGTTCTTTCGGAGTCACCTAGTGCAG`
Result: 18900 fluorescence intensity (a.u.)

Query: Give its binding signal value. Item: `CCGCGCATTTTTTTGGTTCGAAATTCCTTTGCTAAGCAAACGGAGTCACCTAGTGCAG`
Result: 8380 fluorescence intensity (a.u.)
